# Experimental Target: GII.4 Houston 2002 (ABY27560.1) VLPs (UniProt P54635 1-539)
# Test Method Notes: VLP blockade
Measurement Type: EC50

// solved cases for EC50 follow
NORO-256A (antibody, V domains shown) VH: QVQLVESGGGVVQAGRSLRLSCAASGFTFRSYGMHWVRQAPGKGLEWVAIISYDGGSKYYADSVKGRFTISRDNSKNTLYLQMNSLRVEDTALYYCAKDFLRVYSYGWHSFDIWGLGTLVTVSS VL: QSVLTQPPSVSAAPGQRVTISCSGSSSNIGTYYVSWYQHLPGTAPKLLIYDNDKRPSGIPDRFSASKSGTSATLDIAGLQTGDEADYYCGTWDLSLTAGWVFGGGTKLTVL	> 100 µg/mL
NORO-278 (antibody, V domains shown) VH: QVQLVESGGGVVQPGRSLRLSCAASGFTFSSYGMHWVRQAPGKGLEWVAVISYDGSNKYYADSVKGRFTISRDNSKNTLYLQMNSLRAEDTAVYYCAKVTIIAAADLLDYWGQGTLVTVSS VL: QSVLTQPPSVSGAPGQRVTISCTGSSSNIGAGYDVHWYQQLPGTAPKLLIYGNSNRPSGVPDRFSGSKSGTSASLAITGLQAEDEADYYCQSYDSSLSGPVVFGGGTKLTVL	> 100 µg/mL
NORO-296A (antibody, V domains shown) VH: QVQLVESGGGLVKPGGSLRLSCAASGFTFSEYYMSWVRQAPGKALEWVSYITSSFSSTSYADSVKGRFVISRDNAKNSLYLQMNSLRVEDTAVYYCARYGAEYGSRSFYFLDWGQGTLVTVSS VL: QSVLTQPPSVSGAPEQRVTISCTGSSSNIGAGYDVHWYQVLPGIAPKLLIYDNNKRPSGVPDRFSGSKSGTSASLAITGLQAEDEADYYCQSYDSRLSSNVVFGGGTKLTVL	3.2 µg/mL

From here, focus on the item given below.
Endpoint output: EC50 of NORO-303 (antibody, V domains shown) VH: QVQLVESGGGVVQPGRSLRLSCAASGFIFSSYAMHWVRQAPGKGLEWVAVMSYDGNNKYYADSVKGRFTISRDNSKNTLFLQMNSLRPEDTAVYYCARDCRVGWVFTYGMDVWGQGTLVTVSS VL: QSALTQPPSASGSPGQSVTISCTGTSSDVGGYNYVSWYQQHPGKAPKLMMYEISKRPSGVPIRFSGSKSGNTASLTVSGLQAEDEADYYCSSYAGTYNCVVFGGGTKLTVL . Value?
> 100 µg/mL
